Molecular target: T1, cyclic (biotinylated) ABCB5 peptide (human, disulfide 1-18)
T1 construct: immobilised at 200 nM on streptavidin-precoated plates; also called cyclic ABCB5 peptide
T1 peptide: Biotin-CRFGAYLIQAGRMTPEGC
Experiment: cyclic biotinylated peptide ELISA (200 nM peptides), curve fit, OD 450 nm
Bridge positions count the residues as written; N and C are the ends. Ends that are not written are not given here. * marks the point of attachment. Biotin = O=C1N[C@H]2[C@H](CS[C@H]2CCCCC(=O)*)N1
outcome-measure: Bmax
Write no unit; give the number alone.

IN: // query Bmax value for entry ABCB5-Ab45 (antibody, V domains shown) VH: QVQLVQSGAEVKKPGASVKVSCKASGYTFTNYYMHWVRQAPGQGPEWMGIINPSGGSTSYAQKFQGRVTMTRDTSTSTVYMELSSLRSEDTAVYYCARDLAVTGTAYYYYYGMDVWGQGTTVTVSS VL: EFVLTQSPGTLSLSPGERATLSCRASQSVNSNYLAWYQQKPGQAPRLLIYGTSSRATGIPDSFSGSGSGTDFTLTISRLEPEDFAVYYCQQFGSSPLTFGGGTKVEIK
OUT: 3.2
